readout: melting point (°C)
Field format: number, assumed °C, no unit text.

Here is how some molecules turned out for melting point.
[
  {
    "molecule": "CS(=O)(=O)c1ccccc1S(=O)(=O)Nc1ccc2[nH]nc(-c3ccccc3)c2c1",
    "melting point / °C": 223
  },
  {
    "molecule": "CS(=O)(=O)c1ccccc1S(=O)(=O)Nc1ccc2[nH]nc(NCc3ccccc3)c2c1",
    "melting point / °C": 226
  },
  {
    "molecule": "CS(=O)(=O)c1ccccc1S(=O)(=O)Nc1ccc2[nH]nc(-c3ccc[nH]3)c2c1",
    "melting point / °C": 255
  },
  {
    "molecule": "CS(=O)(=O)c1ccccc1S(=O)(=O)Nc1ccc2[nH]nc(-c3ccoc3)c2c1",
    "melting point / °C": 249
  },
  {
    "molecule": "CS(=O)(=O)c1ccccc1S(=O)(=O)Nc1ccc2[nH]nc(C#Cc3ccccc3)c2c1",
    "melting point / °C": 198
  }
]

**Q:** Could you share which melting point value was measured for COC(=O)/C=C/c1n[nH]c2ccc(NS(=O)(=O)c3ccccc3S(C)(=O)=O)cc12 ?
**A:** 253

**Q:** Could you share which melting point value was measured for COc1ccc(-c2n[nH]c3ccc(NS(=O)(=O)c4ccccc4S(C)(=O)=O)cc23)cc1 ?
**A:** 244

**Q:** Could you share which melting point value was measured for CS(=O)(=O)Nc1n[nH]c2ccc(NS(=O)(=O)c3cccc(F)c3)cc12 (hydrate or solvate) ?
**A:** 230

**Q:** Could you share which melting point value was measured for CS(=O)(=O)c1ccccc1S(=O)(=O)Nc1ccc2[nH]nc(CCc3ccc(F)cc3)c2c1 ?
**A:** 234

Values compiled from patent US6858638B2.
